- Species on record: Homo sapiens
- protocol: Selectivity index, ratio of IC50 for human SERT to IC50 for human NET
I'd be grateful if you could share measured Ratio IC50 for these entries.
One number for each entry.

[
  {
    "compound-smiles": "CC(=O)NC[C@@H]1CNCCO[C@H]1c1ccc(C)c(Cl)c1",
    "Ratio IC50": 200
  },
  {
    "compound-smiles": "CC(=O)NCC[C@@H]1CNCCO[C@H]1c1ccc(Cl)c(Cl)c1",
    "Ratio IC50": 35
  }
]

Next item in the queue.
Problem: Can you look up the measured Ratio IC50 of OC[C@H]1CNCCO[C@@H]1c1ccc(Cl)c(Cl)c1 for me?
Solution: 6.1

From: ChEMBL document CHEMBL3593224
